Listing of entries alongside the reported GI50.
# System: UACC-62
# protocol-text: NCI tumour cell line growth inhibition, 48 h
The source made the active and inactive calls. No stated cut-off is given here; in the data, active = GI50 up to about 1.1 µM and inactive = higher.

[
  {
    "compound": "CNC(=O)CCCNC(=O)CCCC(=O)N(C)C",
    "GI50": "> 100 µM (inactive)"
  },
  {
    "compound": "Nc1nncc2[nH]nnc12",
    "GI50": "> 100 µM (inactive)"
  },
  {
    "compound": "CCCCOCN/C(N)=N/C#N",
    "GI50": "> 100 µM (inactive)"
  },
  {
    "compound": "O=C(c1ccccc1)c1ccc2cccc(O)c2n1",
    "GI50": "33.1 µM (inactive)"
  },
  {
    "compound": "NC(=O)C#CC#CC#CCO",
    "GI50": "1.92 µM (inactive)"
  },
  {
    "compound": "O=C(c1ccccc1)c1ccc2[nH]c(-c3c(Cl)c(Cl)c(Cl)c(Cl)c3C(=O)Nc3ccco3)nc2c1",
    "GI50": "49.5 µM (inactive)"
  },
  {
    "compound": "O=S(=O)(O)c1ccc(/N=N/c2ccc(/N=N/c3c(O)ccc4ccc(S(=O)(=O)O)cc34)cc2)cc1",
    "GI50": "> 100 µM (inactive)"
  },
  {
    "compound": "CCOC(=O)NC(Nc1ccc(C)cc1)(C(F)(F)F)C(F)(F)F",
    "GI50": "> 100 µM (inactive)"
  },
  {
    "compound": "Clc1cc(OCc2nn3c(Cc4ccccc4)nnc3s2)c(Cl)cc1OCc1nn2c(Cc3ccccc3)nnc2s1",
    "GI50": "> 100 µM (inactive)"
  },
  {
    "compound": "CCCCOCn1c(=O)[nH]c(=O)c2ccccc21",
    "GI50": "> 100 µM (inactive)"
  },
  {
    "compound": "Nc1nnnn1NC(=O)NCCCl",
    "GI50": "> 10 µM (inactive)"
  },
  {
    "compound": "Fc1cccc(C2SCc3nc4ccccc4n32)c1 (centres undefined)",
    "GI50": "40.1 µM (inactive)"
  },
  {
    "compound": "Cn1cc2ccccc2c1-c1nc(F)nc(Oc2ccc3c(c2)CC[C@@H]2C3CC[C@@]3(C)C2CC[C@@H]3O)n1 (some centres undefined)",
    "GI50": "17.1 µM (inactive)"
  },
  {
    "compound": "C/C=C/[C@@H]1O[C@H](CC#C[Si](C)(C)C)[C@@]2(C=O)C(C)=CC[C@H](C(C)C)[C@@H]12",
    "GI50": "15.8 µM (inactive)"
  },
  {
    "compound": "O=C(CN1CCN(C(=O)OCc2ccccc2)CCN(CC(=O)N2CCCCC2)CCN(C(=O)OCc2ccccc2)CC1)N1CCCCC1",
    "GI50": "18.1 µM (inactive)"
  },
  {
    "compound": "O=[N+]([O-])C1Cc2ccccc2OC1c1ccccc1 (centres undefined)",
    "GI50": "55.3 µM (inactive)"
  },
  {
    "compound": "CC(=O)OCCc1cccnc1/C=N/O",
    "GI50": "> 100 µM (inactive)"
  },
  {
    "compound": "Cc1cc(=O)oc2c(CN(CCCl)CCCl)c(O)ccc12",
    "GI50": "5.56 µM (inactive)"
  },
  {
    "compound": "CN(C)CCNc1ccc2ncn3c4ccc(O)cc4c(=O)c1c23",
    "GI50": "3.44 µM (inactive)"
  }
]
